Test system: HCC 2998
Experiment: NCI tumour cell line growth inhibition, 48 h
Activity calls are given as the source filed them. Rule as the data show it: active = GI50 up to about 1.1 µM and inactive = higher.

{"columns": ["MOLECULE", "GI50"],
 "data": [
  ["CC(C)NC(=O)CN1CCN(C2=C(Cl)C(=O)c3c(O)ccc(O)c3C2=O)CC1", "2.92 µM (inactive)"],
  ["CCC(=O)Oc1ccc2c(c1)c(=O)c1c(NCCCN(C)C)ccc3nnn2c31", "1.25 µM (inactive)"],
  ["Cc1cc(C23OC4COC(C)(C)OC4C2OC(C)(C)O3)nc2ccccc12 (stereo not given)", "> 100 µM (inactive)"],
  ["O=C1CC2CCC(C1)[S+]2[O-] (stereo not given)", "> 100 µM (inactive)"],
  ["O=[N+]([O-])c1cccc(-c2csc(N/N=C3\\NC/C(=C/c4ccc5c(c4)OCO5)S3)n2)c1", "31.9 µM (inactive)"]
]}

---

Test system: ACHN
Test: NCI tumour cell line growth inhibition, 48 h
Calls of active or inactive are those of the source. No stated cut-off is given here; in the data, active = GI50 up to about 1.1 µM and inactive = higher.
// values below are reported GI50

{"columns": ["COMPOUND", "GI50"],
 "data": [
  ["CC(C)[Si](OC1=C(C(=O)N(C)c2ccccc2Cl)CCCCC1)(C(C)C)C(C)C", "> 100 µM (inactive)"],
  ["CN1C(=O)N(C)C2(O)c3ccccc3C(=O)C12O (stereo not given)", "> 100 µM (inactive)"],
  ["O=c1c2sc3nc(NCCN4CCCCC4)ncc3c2ncn1-c1ccccc1", "42 µM (inactive)"],
  ["CCOc1ccc2nc(NC(=O)C(=O)C3C(=O)C(CC4C(=O)c5ccccc5C4=O)C(=O)CC3(C)C)sc2c1 (stereo not given)", "> 100 µM (inactive)"],
  ["Cc1ccc2nc3ccccc3c(C3C4C(=O)N(c5ccc(Br)cc5Cl)C(=O)C4ON3C(C(N)=O)c3ccccc3)c2c1 (stereo not given)", "6.73 µM (inactive)"]
]}

---

System: MDA-MB-435
Assay: NCI tumour cell line growth inhibition, 48 h
Activity calls are given as the source filed them. Cut-off read from the data, not from the text of the source: active = GI50 up to about 1.1 µM and inactive = higher.
Measured GI50 values are reported for all entries that follow.
READOUT: GI50

{"columns": ["MOLECULE", "REPORTED RESULT"],
 "data": [
  ["CC1CCC2N(C1)CC1C3(O)CC45OC6(O)C(O)CCC4(C)C6CCC5C3(O)CC(O)C1(O)C2(C)O (stereo unspecified)", "> 100 µM (inactive)"],
  ["CCN(CC)CCn1c2ccccc2c(=O)c2c(O)ccc(O)c21", "18.6 µM (inactive)"],
  ["CCc1cccc(C(C)(C)C)c1NC(=S)N/C=C(/C#N)C(N)=O", "> 100 µM (inactive)"],
  ["CCOC(=O)Cn1c(=O)c2cc(C)cc3c(Cl)nc4c(OC)c(OC)cc1c4c32", "> 100 µM (inactive)"],
  ["COC1OC(C)/C(=N/O)C2OC(C)(C)OC12 (stereo unspecified)", "> 100 µM (inactive)"],
  ["CCCCCCCCCCCCCCCCCCNC(=O)C(N)Cc1ccc(OCc2ccccc2)cn1 (stereo unspecified)", "17.3 µM (inactive)"]
]}

---

Measured GI50 accompanies every entry in the list below.
Tested on: IGROV-1
Assay: NCI tumour cell line growth inhibition, 48 h
Active and inactive are the calls of the source. Cut-off read from the data, not from the text of the source: active = GI50 up to about 1.1 µM and inactive = higher.

{"columns": ["MOLECULE", "GI50"],
 "data": [
  ["CCCCCCCCCCC(O)C1CCC(C2CCC(C(O)CCCCC(O)CCCCCC(O)CC3=CC(C)OC3=O)O2)O1 (stereo unspecified)", "3.72 µM (inactive)"],
  ["OC1c2ccccc2[C@@H]2[C@H]1[C@@H](c1ccccc1)C1(Cc3ccccc3C1O)[C@H]2c1ccccc1 (stereo partly specified)", "4.37 µM (inactive)"],
  ["OC(COc1ccc(Cl)cc1Cl)CN1CCCC1 (stereo unspecified)", "> 100 µM (inactive)"],
  ["C=C(C)[C@H]1[C@@H]2OC(=O)[C@H]1[C@]1(O)C[C@H]3OC34C(=O)O[C@H]2[C@@]41C.CC(C)(O)[C@H]1[C@@H]2OC(=O)[C@H]1[C@]1(O)C[C@H]3OC34C(=O)O[C@H]2[C@@]41C (stereo partly specified)", "> 100 µM (inactive)"],
  ["CC1OC(O[C@H]2CC[C@]3(C=O)[C@H]4CC[C@]5(C)[C@H](C6=CC(=O)OC6)CC[C@]5(O)[C@@H]4C=C[C@]3(O)C2)CC(O)C1O (stereo partly specified)", "0.157 µM (active)"],
  ["COC(=O)C1=C(C)N2CCOC2(C)C(C(=O)OC)C1c1ccc[nH]1 (stereo unspecified)", "> 100 µM (inactive)"],
  ["CC(=O)OCC1OC(n2c(-c3cccs3)c3c(c(C#N)c2=S)-c2ccccc2CC3)C(OC(C)=O)C(OC(C)=O)C1OC(C)=O (stereo unspecified)", "9.04 µM (inactive)"],
  ["COc1nc2cccc(C(O)c3ccccc3)c2nc1-c1ccccc1 (stereo unspecified)", "5.09 µM (inactive)"],
  ["CCc1ccccc1NC(=O)C(=O)CC(=O)c1sc(Nc2ccccc2Cl)nc1C", "40 µM (inactive)"],
  ["O=C(OC(/C=C/c1ccccc1)P1(=O)N(Cc2ccccc2)[C@@H]2CCCC[C@H]2N1Cc1ccccc1)c1ccccc1 (stereo partly specified)", "2.9 µM (inactive)"],
  ["C[C@@H]1CCC2[C@@H](C)[C@@H](O[C@H]3O[C@@H]4O[C@@]5(C)CCC6[C@H](C)CCC([C@H]3C)[C@]64OO5)O[C@@H]3O[C@@]4(C)CCC1[C@@]23OO4 (stereo partly specified)", "> 25 µM (inactive)"],
  ["CCOC(=O)Cn1c(=O)c2cc(C)cc3c(Cl)nc4c(OC)c(OC)cc1c4c32", "71.8 µM (inactive)"],
  ["COCOCCCCCO[Si](C)(C)C(C)(C)C", "32.6 µM (inactive)"],
  ["OCC(O)CNc1ccnc2cc(Cl)ccc12 (stereo unspecified)", "> 100 µM (inactive)"],
  ["Cc1cc(O)c(C(C)C)cc1/N=C/c1ccccc1O", "8.43 µM (inactive)"],
  ["CC(C)=NNc1snnc1C(N)=O", "> 100 µM (inactive)"],
  ["COc1ccc(/C=C/C(=O)c2sc(-n3nc(-c4ccccc4)cc3-c3ccccc3)nc2C)cc1", "> 10 µM (inactive)"],
  ["N#CC(C#N)/N=N/c1ccc(-c2nc3ccccc3[nH]2)cc1", "16.8 µM (inactive)"],
  ["Nc1nc(CCl)nc(Nc2ccccc2)n1", "16.6 µM (inactive)"],
  ["N#CC(c1ccccc1)N(CCc1ccccc1)C(=O)c1ccc(C(=O)N(CCc2ccccc2)C(C#N)c2ccccc2)cc1 (stereo unspecified)", "23.9 µM (inactive)"],
  ["COc1cc(C2c3cc4c(cc3[C@H](OCCN(C)C)[C@@H]3COC(=O)C23)OCO4)cc(OC)c1O (stereo partly specified)", "1.36 µM (inactive)"],
  ["CC1CC/C(=C\\c2ccc(Cl)cc2)C2OC(N)=C(C#N)C(c3ccc(Cl)cc3)=C12 (stereo unspecified)", "12.3 µM (inactive)"],
  ["O=C(OCc1ccccc1)C(Cc1ccccc1)N(Cc1ccccc1)Cc1ccccc1 (stereo unspecified)", "> 100 µM (inactive)"],
  ["CCOC(=O)CSc1[nH]c(NC(=S)Nc2ccccc2)c(C(N)=O)c1C(N)=O", "> 10 µM (inactive)"],
  ["CN1c2ccccc2S(=O)(=O)n2c(CCc3ccccc3)nnc21", "> 100 µM (inactive)"],
  ["CCOC(=O)c1c(SC(=O)c2ccc(OC)cc2)n(-c2ccccc2)c(=S)n(-c2ccccc2)c1=O", "21.1 µM (inactive)"],
  ["N#Cc1c(N)c2c(c(-c3ccccc3)c1-c1ccccc1)C(=O)N(Nc1ccccc1)C2=O", "34.8 µM (inactive)"],
  ["CC(=O)OCC1OC(Nn2c(=O)[nH]c3ccccc3c2=O)C(OC(C)=O)C(OC(C)=O)C1OC(C)=O (stereo unspecified)", "> 100 µM (inactive)"],
  ["CN1CCN(c2cc(-c3cc4ccccc4o3)oc(=O)c2C#N)CC1", "88.9 µM (inactive)"],
  ["Cc1ccc(S(=O)(=O)c2c(N)n(CCN(C)C)c3nc4ccccc4nc23)cc1", "> 100 µM (inactive)"],
  ["O=C1C=CC(=O)c2c1ccc1c3ccccc3n(-c3ccccc3[N+](=O)[O-])c21", "1.94 µM (inactive)"],
  ["Cc1cc2c(s1)C(=O)c1sccc1C2=O", "1.66 µM (inactive)"],
  ["CCCCC1Cc2cc(O)ccc2-c2n1c1cc(O)ccc1[n+]2C.CCCCC1Cc2cc(O)ccc2-c2n1c1ccc(O)cc1[n+]2C (stereo unspecified)", "25.9 µM (inactive)"],
  ["CC(=O)Nc1cc([As](=O)(O)O)ccc1O", "> 100 µM (inactive)"],
  ["O=c1oc2ccccc2c(O)c1C(C/C(CCN1CCCC1)=N\\Nc1ccccc1)c1ccccc1 (stereo unspecified)", "> 100 µM (inactive)"],
  ["Cn1c2ccccc2c(=O)c2cccc(C(=O)NC(CCC(N)=O)C(=O)O)c21 (stereo unspecified)", "> 100 µM (inactive)"]
]}
